condition: in acetone, 313.15 K
value kind: solubility (mole fraction)
Give bare numbers.

Query block: Quick one: solubility (mole fraction) of "C=C1C[C@]23C[C@@]1(O)CC[C@H]2[C@@]12C=C[C@H](O)[C@@](C)(C(=O)O1)[C@H]2[C@@H]3C(=O)O" ?
Result block: 0.258

---

condition: in acetone, 278.15 K
value kind: solubility (mole fraction)

Query block: Quick one: solubility (mole fraction) of "C=C1C[C@]23C[C@@]1(O)CC[C@H]2[C@@]12C=C[C@H](O)[C@@](C)(C(=O)O1)[C@H]2[C@@H]3C(=O)O" ?
Result block: 0.103

---

condition: in acetonitrile, 323.15 K
value kind: solubility (mole fraction)

Query block: Quick one: solubility (mole fraction) of "C=C1C[C@]23C[C@@]1(O)CC[C@H]2[C@@]12C=C[C@H](O)[C@@](C)(C(=O)O1)[C@H]2[C@@H]3C(=O)O" ?
Result block: 0.0565

---

condition: in isopropanol, 303.15 K
value kind: solubility (mole fraction)

Query block: Quick one: solubility (mole fraction) of "C=C1C[C@]23C[C@@]1(O)CC[C@H]2[C@@]12C=C[C@H](O)[C@@](C)(C(=O)O1)[C@H]2[C@@H]3C(=O)O" ?
Result block: 0.000821

---

condition: in isopropanol, 293.15 K
value kind: solubility (mole fraction)

Query block: Quick one: solubility (mole fraction) of "C=C1C[C@]23C[C@@]1(O)CC[C@H]2[C@@]12C=C[C@H](O)[C@@](C)(C(=O)O1)[C@H]2[C@@H]3C(=O)O" ?
Result block: 0.000688

---

condition: in chloroform, 313.15 K
value kind: solubility (mole fraction)
Give bare numbers.

Query block: Quick one: solubility (mole fraction) of "C=C1C[C@]23C[C@@]1(O)CC[C@H]2[C@@]12C=C[C@H](O)[C@@](C)(C(=O)O1)[C@H]2[C@@H]3C(=O)O" ?
Result block: 0.0994

---

condition: in ethanol, 318.15 K
value kind: solubility (mole fraction)
Answers are plain numbers.

Query block: Quick one: solubility (mole fraction) of "C=C1C[C@]23C[C@@]1(O)CC[C@H]2[C@@]12C=C[C@H](O)[C@@](C)(C(=O)O1)[C@H]2[C@@H]3C(=O)O" ?
Result block: 0.404

---

condition: in chloroform, 318.15 K
value kind: solubility (mole fraction)
Numbers only.

Query block: Quick one: solubility (mole fraction) of "C=C1C[C@]23C[C@@]1(O)CC[C@H]2[C@@]12C=C[C@H](O)[C@@](C)(C(=O)O1)[C@H]2[C@@H]3C(=O)O" ?
Result block: 0.114

---

condition: in THF, 288.15 K
value kind: solubility (mole fraction)
Give bare numbers.

Query block: Quick one: solubility (mole fraction) of "C=C1C[C@]23C[C@@]1(O)CC[C@H]2[C@@]12C=C[C@H](O)[C@@](C)(C(=O)O1)[C@H]2[C@@H]3C(=O)O" ?
Result block: 0.199

---

condition: in THF, 323.15 K
value kind: solubility (mole fraction)
One number for each entry.

Query block: Quick one: solubility (mole fraction) of "C=C1C[C@]23C[C@@]1(O)CC[C@H]2[C@@]12C=C[C@H](O)[C@@](C)(C(=O)O1)[C@H]2[C@@H]3C(=O)O" ?
Result block: 0.401

---

condition: in DMSO, 293.15 K
value kind: solubility (mole fraction)
Numbers only.

Query block: Quick one: solubility (mole fraction) of "C=C1C[C@]23C[C@@]1(O)CC[C@H]2[C@@]12C=C[C@H](O)[C@@](C)(C(=O)O1)[C@H]2[C@@H]3C(=O)O" ?
Result block: 0.184
